Target: UniProtKB P19440
Sequence (P19440 1-380 limits assumed): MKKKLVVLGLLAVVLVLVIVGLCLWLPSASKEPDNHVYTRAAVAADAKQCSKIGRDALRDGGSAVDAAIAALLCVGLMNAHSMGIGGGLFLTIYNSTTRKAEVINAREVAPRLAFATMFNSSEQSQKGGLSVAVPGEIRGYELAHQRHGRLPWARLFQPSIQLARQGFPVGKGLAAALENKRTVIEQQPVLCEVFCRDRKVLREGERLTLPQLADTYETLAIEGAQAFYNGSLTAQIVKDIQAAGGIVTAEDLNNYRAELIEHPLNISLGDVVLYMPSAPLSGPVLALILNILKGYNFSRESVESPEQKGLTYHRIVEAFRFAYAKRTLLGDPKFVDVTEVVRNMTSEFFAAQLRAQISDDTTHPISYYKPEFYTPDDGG
Sequence (P19440 381-569 limits assumed): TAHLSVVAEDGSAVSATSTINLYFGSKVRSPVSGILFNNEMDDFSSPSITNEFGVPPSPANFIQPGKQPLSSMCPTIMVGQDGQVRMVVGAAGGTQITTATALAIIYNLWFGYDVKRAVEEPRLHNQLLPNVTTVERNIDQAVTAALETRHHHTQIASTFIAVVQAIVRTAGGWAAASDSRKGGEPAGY
pIC50: −log10 of the molar value.
READOUT_TYPE: pIC50

In [3]: df
Out[3]:
                                   molecule  recorded_measurement
0  CNC(=O)C1=C(C)C2=C(Nc3ccccc3S2)C(C(=O)NC)C1c1ccccc1 (centres undefined)                  4.70
1  CNC(=O)c1c(C)c2c(c(C(=O)NC)c1-c1ccccc1Cl)Nc1ccccc1S2                  4.74
2  CNC(=O)c1c(C)c2c(c(C(=O)NC)c1-c1ccccc1C)Nc1ccccc1S2                  4.60
